Molecular target: human A2A adenosine receptor (Homo sapiens (Human), UniProt P29274)
Sequence (P29274 whole entry): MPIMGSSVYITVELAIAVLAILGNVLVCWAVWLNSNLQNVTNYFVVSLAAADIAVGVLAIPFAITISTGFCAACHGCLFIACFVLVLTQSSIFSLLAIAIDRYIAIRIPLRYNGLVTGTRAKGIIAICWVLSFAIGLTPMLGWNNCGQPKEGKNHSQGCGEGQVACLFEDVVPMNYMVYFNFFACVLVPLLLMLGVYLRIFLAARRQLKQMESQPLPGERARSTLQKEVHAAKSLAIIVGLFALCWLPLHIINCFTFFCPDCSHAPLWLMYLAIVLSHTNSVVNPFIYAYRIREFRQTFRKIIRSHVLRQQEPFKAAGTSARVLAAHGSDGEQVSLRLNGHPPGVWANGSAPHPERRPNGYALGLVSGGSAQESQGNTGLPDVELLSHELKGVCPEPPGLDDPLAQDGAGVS
Assay: A2A binding affinity using radioligand binding, Method (A)
Details: Method (A): filtration radioligand binding, [3H] SCH58261, membranes expressing human A2A
pIC50: −log10 of the molar value.
Respond with condition met for pIC50 values of 8 and above, condition not met for values below.

Reference set, count: 9
compound | answer_label
CC(C)(N)c1ccc([C@@H]2C[C@H]2Cc2nc3c4cc(F)cc(F)c4nc(N)n3n2)cc1 | condition not met
CC(C)(N)c1ccc([C@H]2C[C@@H]2Cc2nc3c4cc(F)cc(F)c4nc(N)n3n2)cc1 | condition not met
COc1cc(F)cc2c1nc(N)n1nc(CCC3(O)CCc4c(nnn4C4CC(F)(F)C4)C3)nc21 (single isomer, unassigned) [Example 14.3A] | condition met
COc1cc(F)cc2c1nc(N)n1nc(CCS(=O)(=O)CC(C)C)nc21 | condition not met
COc1cc(F)cc2c1nc(N)n1nc(CC3CC3c3ccc(C(C)(C)N)cc3)nc21 (single isomer, unassigned) [Example 8.4B] | condition met
COc1cccc2c1nc(N)n1nc(CCC3CCc4c(cnn4C(C)C)C3)nc21 (single isomer, unassigned) [Example 7.8B] | condition met
COc1cc(F)cc2c1nc(N)n1nc(CCC3CCc4c(cnn4C(C)C)C3)nc21 (single isomer, unassigned) [Example 7.7A] | condition met
COc1cccc2c1nc(N)n1nc(CC3CC3c3ccc(C(C)(C)N)cc3)nc21 (single isomer, unassigned) [Example 8.5B] | condition met
COc1cccc2c1nc(N)n1nc(COC3CCc4c(nnn4C4CC(F)(F)C4)C3)nc21 (single isomer, unassigned) [Example 2.2B] | condition met

Q: Decide: pIC50 of COc1cc(F)cc2c1nc(N)n1nc(CCC3CCc4nn(C(C)C)cc4C3)nc21 (single isomer, unassigned) [Example 5.4B] >= 8?
Ans: condition met
